Test: solvent given as SMILES
Conditions: in CCCCCCCCCCO
# solvation free energy, 298 K values compiled below

Compound structure string	Units of measure	solvation free energy, 298 K
O=C(O)c1ccc([N+](=O)[O-])cc1	kcal/mol	-11.7
COC(=O)c1ccc(O)cc1	kcal/mol	-11.4
CC(C)CO	kcal/mol	-5.43
Cc1ccccc1C(=O)O	kcal/mol	-8.7
c1cc2c3c(cccc3c1)CC2	kcal/mol	-8.8
CCCO	kcal/mol	-4.8
O=C1c2ccccc2C(=O)c2c(Cl)cccc21	kcal/mol	-13.1
C1CCCCC1	kcal/mol	-3.42
CCCCCCCCCCCCCCCCCCO	kcal/mol	-14.9
CCCCCCCCCCCCCCCCCCCCCCCC	kcal/mol	-15.2
FS(F)(F)(F)(F)F	kcal/mol	0.47

Entry source: the CombiSolv-Exp solvation set (Vermeire and Green 2021)
